Entries and their EC50, ADCC Reporter Bioassay (luciferase) values follow.
- Target Of Assay: human claudin 18.2 (CLDN18.2) (human)
- Assay Name: cell-based or functional assay
Value Kind: EC50, ADCC Reporter Bioassay (luciferase) (nM)

| Binder | Reported Value |
| --- | --- |
| 72C1B6A3 HC WT-LC N31E (humanized, PTM de-risked, No. 4) (antibody, V domains shown) VH: QVQLVQSGAEVKKPGASVKVSCKASGYTFTTYPIEWVRQAPGQRLEWMGNFHPYNDDTKYNEKFKGRVTITRDTSASTAYMELSSLRSEDTAVYYCARRAYGYPYAMDYWGQGTLVTVSS VL: DIVMTQSPDSLAVSLGERATINCKSSQSLLESGNQKNYLTWYQQKPGQPPKLLIYRASSRESGVPDRFSGSGSGTDFTLTISSLQAEDVAVYYCQNDYIYPYTFGGGTKLEIK | 1.65 |
| 120B7B2 HC G57D&S104A-LC S32A&G97A (BG2001-E) (humanized, PTM de-risked, No. 7) (antibody, V domains shown) VH: QVQLVQSGAEVKKPGASVKVSCKASGYTFTGYIIQWVRQAPGQRLEWMGFINPYNDDTKYNEQFKGRVTITRDTSASTAYMELSSLRSEDTAVYYCARAYFGNAFAYWGQGTLVTVSS VL: DIVMTQSPDSLAVSLGERATINCKSSQSLLNAGNQKNYLTWYQQKPGQPPKLLIYWASTRESGVPDRFSGSGSGTDFTLTISSLQAEDVAVYYCQNAYYFPFTFGGGTKLEIK | 0.114 |
| 175D10 (IMAB362; claudiximab) (antibody, V domains shown) VH: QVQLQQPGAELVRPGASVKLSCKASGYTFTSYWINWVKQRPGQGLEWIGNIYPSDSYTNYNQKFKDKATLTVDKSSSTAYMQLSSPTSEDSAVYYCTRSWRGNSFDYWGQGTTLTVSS VL: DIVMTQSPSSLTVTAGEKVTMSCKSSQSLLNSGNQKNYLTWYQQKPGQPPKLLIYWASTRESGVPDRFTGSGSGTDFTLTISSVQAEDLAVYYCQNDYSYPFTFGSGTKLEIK | 0.158 |
